// provenance: patent US20240158446A1

Each record here notes measured Kd.
target: GDP-bound KRAS wild-type protein (Homo sapiens); experiment: Binding to KRAS by surface plasmon resonance (SPR), Single Cycle Kinetics; conditions: SPR Single Cycle Kinetics, GDP-bound KRAS wild-type protein, 1:1 binding model; read-out: KRAS KD
Sequence (P01116 whole entry): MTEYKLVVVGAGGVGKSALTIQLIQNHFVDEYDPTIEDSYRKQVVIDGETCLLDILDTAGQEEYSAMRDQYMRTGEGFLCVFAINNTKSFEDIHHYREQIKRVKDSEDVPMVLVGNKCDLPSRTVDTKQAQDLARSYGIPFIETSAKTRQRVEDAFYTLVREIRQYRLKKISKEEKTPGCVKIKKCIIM
Supply the numeric figure in nM, leaving out any unit text.

CC[C@H](C)[C@@H]1NC(=O)[C@H](CC)N(C)C(=O)C[C@@H](C(=O)N(C)C)N(C)C(=O)[C@H](C2CCCC2)N(C)C(=O)C2(CCC2)NC(=O)[C@@H]2CCCCN2C(=O)[C@H](CCc2cc(F)c(C(F)(F)F)c(F)c2)NC(=O)CN(C)C(=O)[C@H](Cc2ccc(C(F)(F)F)cc2)N2CCCC[C@@H](C2=O)N(C)C(=O)CN(C)C1=O | 0.034

Then there is this molecule:
Consider the molecule `CCC[C@H]1C(=O)N[C@@H]([C@@H](C)CC)C(=O)N(C)CC(=O)N(C)[C@H]2C/C=C\CCN(C2=O)[C@@H](Cc2ccc(C(F)(F)F)cc2)C(=O)N(C)CC(=O)N[C@@H](CCc2ccc3c(C)c(C)n(C)c3c2)C(=O)N2C[C@H](OCC)C[C@H]2C(=O)NC2(CC(C)(C)C2)C(=O)N(C)[C@@H](C2CCCC2)C(=O)N(C)[C@H](C(=O)N(C)C)CC(=O)N1C` and give its measured Kd. 2
